Data credit: PubChem BioAssay

test: small molecules captured by biotinylated probe aFSTL3 – biochemical, small-molecule microarray, fluorescence 635/667, stem cell growth factor project, primary screen (AID 1064); details: higher = more signal;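 note: measures binding of the biotinylated anti-FSTL3 antibody to printed compounds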
Measured Endpoint: composite z-score
Format: numeric value only, no unit, no commentary.

Reported composite z-score for `CCCCC(=C=CC[C@@H](O)c1cccc(OCCO)c1)C[C@@H](O)c1ccccn1` was -0.528

Reported composite z-score for `CN(C)C(=O)[C@]1(Cc2ccccc2)N=C(c2ccc(OCCCO)cc2)O[C@@H]1c1ccccc1N=[N+]=[N-]` was 0.303

Reported composite z-score for `O=C1O[C@@H](c2ccccc2)[C@@H](c2ccccc2)N2[C@@H](c3ccccc3OCCO)[C@]3(C(=O)Nc4ccccc43)[C@@H](C(=O)O)[C@H]12` was -0.229

Reported composite z-score for `C=C(CCCC)/C(=C/C[C@@H](OC(C)=O)c1cccc(OCCO)c1)c1cnc2ccccc2c1` was -0.0295

Reported composite z-score for `C=CCN1Cc2ccccc2[C@@H]2OC(c3ccc(OCCCO)cc3)=N[C@]2(CCS(=O)(=O)c2ccccc2)C1=O` was 0.189

Reported composite z-score for `C=CCNC(=O)[C@@H]1[C@H]2C(=O)O[C@H](c3ccccc3)[C@H](c3ccccc3)N2[C@H](c2ccc(OCCO)cc2)[C@@]12C(=O)N(C(=O)OCCOC)c1ccc(C#CCC(C(=O)OC)C(=O)OC)cc12` was -0.426

Reported composite z-score for O=C1C2C=CC(C(O)C=Cc3ccc([N+](=O)[O-])cc3)N(Nc3ccccc3F)C2C(=O)N1c1ccccc1 (stereo not drawn) was 0.133

Reported composite z-score for `CCCNC(=O)[C@@H]1c2ccccc2C(=O)N(Cc2ccccc2OC)[C@H]1c1ccc(CO)cc1` was -0.148

---

assay: probe aShh binding to arrayed compounds – biochemical, biotinylated probe, 635/667 nm fluorescence, primary screen (AID 1114); settings: small-molecule microarray, higher = more signal;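 note: probe is biotin-labelled aShh protein from a stem cell growth factor screen; measures binding of labelled protein to compounds printed on the slide; score merges feature fluorescence at 667 nm with signal-to-noise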
Consider the following partition of reported composite z-score into named classes: bottom bin = under -0.08, middle bin = from -0.08 up to 0.4, top bin = 0.4 and over

query: Bin? Cc1ccc(C2C3C(=O)CC4C(=O)N(c5ccccc5)C(=O)C4C3CN2S(=O)(=O)c2ccc(C)cc2)cc1 (stereo not given)
result: middle bin

query: Bin? `COC(=O)[C@@]1(Cc2ccc(OC)cc2)[C@H]2c3cc(C(=O)N(C)C)n(Cc4ccc(C(F)(F)F)nc4)c3C[C@H]2CN1C(=O)c1ccccc1`
result: top bin

query: Bin? `C=C(C(=O)CC[C@H](OC(C)=O)c1ccccc1OCCO)C(C)C`
result: bottom bin

query: Bin? CCCCCCCCCCC(O)C1C=CC2C(=O)NC(=O)C2N1Nc1ccc(Cl)cc1Cl (stereo not given)
result: bottom bin

query: Bin? `COC(=O)[C@@]1(Cc2ccc(F)cc2)[C@H]2c3cc(C(=O)N(C)C)n(Cc4ccc(C)o4)c3C[C@H]2CN1C(=O)c1ccccc1`
result: top bin

query: Bin? `COc1ccc(CCNC(=O)[C@@]2(c3ccc([N+](=O)[O-])cc3)CC(=O)N(CC34CC5CC(CC(C5)C3)C4)[C@@H]2c2ccc(CO)cc2I)cc1`
result: bottom bin

query: Bin? `C=CCOC(=O)[C@H]1[C@@H]2C(=O)O[C@@H](c3ccccc3)[C@@H](c3ccccc3)N2[C@@H](c2ccc(OCCOC(=O)[C@H]3C[C@H]4C(=O)N[C@@H](CCCCN(C)C)C(=O)N4[C@H]3c3cccc(OCCO)c3)cc2)[C@]12C(=O)Nc1ccc(I)cc12`
result: middle bin

query: Bin? `CC(C)CNC(=O)[C@@]1(Cc2ccccc2I)c2ccccc2C(=O)N(Cc2ccccc2C(F)(F)F)[C@H]1c1ccc(CO)cc1`
result: top bin

query: Bin? `O=c1cccc(-c2ccccc2Cl)o1`
result: middle bin

query: Bin? `COCCCNC(=O)[C@]1(Cc2ccccc2)N=C(c2ccc(OCCCO)cc2)O[C@@H]1c1ccccc1CN=[N+]=[N-]`
result: top bin

query: Bin? `CCOC(=O)C[C@H]1[C@H](OC(=O)c2ccc(C(=O)c3ccccc3)cc2)[C@@H](NC(=O)c2ccccc2)c2cc(OCCCO)ccc2N1C(=O)c1ccccc1`
result: middle bin

query: Bin? CCOc1ccc(N2C(=O)CSC2c2cccc([N+](=O)[O-])c2)cc1 (stereo not given)
result: middle bin

query: Bin? `[N-]=[N+]=Nc1ccccc1[C@H]1OC(c2ccc(OCCCO)cc2)=N[C@@]1(Cc1ccccc1)C(=O)N1CCOCC1`
result: top bin

query: Bin? `O=C1[C@H]2C=C(Br)[C@H](C[C@@H]2OCCCCCCO)[C@@]12CO2`
result: bottom bin

query: Bin? COc1cc2c(cc1O)C(c1cccs1)N(Cc1cccc(OC(F)(F)F)c1)CC2 (stereo not given)
result: middle bin

---

assay: compounds binding Alexa647 anti-His antibody – biochemical, small-molecule microarray, 635 nm fluorescence, artefact control for SMM control protein annotation, primary screen (AID 1128); settings: higher = more signal;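 note: score merges feature fluorescence with signal-to-noise for each printed compound spot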
Measured Endpoint: composite z-score
Format: numeric value only, no unit, no commentary.

Reported composite z-score for `C=C(C(=O)CC[C@H](OC(C)=O)c1ccccc1OCCO)C(C)C` was -0.29

Reported composite z-score for `COC(=O)C(CC#Cc1ccc2c(c1)[C@]1(C(=O)N2)[C@H](c2ccccc2OCCO)N2[C@H](c3ccccc3)[C@H](c3ccccc3)OC(=O)[C@H]2[C@@H]1C(=O)O)C(=O)OC` was 1.94

Reported composite z-score for `COc1cc2c(cc1O)C=[N+](Cc1cc3c(cc1Br)OCO3)CC2` was -0.954

Reported composite z-score for `CC(C)OC(=O)C=C1C[C@@H](c2cccc(Cl)c2)O[C@@H](c2cccc(Cl)c2)O1` was 1.72

---

assay: calcein-AM signal in unstimulated myeloma cells – cell-based, calcein-AM fluorescence, 48 h, PK04 Diversity Set, profiling panel (AID 1166); details: RPMI8226 myeloma viability, higher = more signal;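 note: cells grown under basal conditions without added stimulus; test concentration not given here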
Measured Endpoint: z-score
Format: numeric value only, no unit, no commentary.

Reported z-score for CN1C(=O)C2C=CC(C(O)c3c(F)cccc3Cl)N(NC(=O)OC(C)(C)C)C2C1=O (stereo not given) was -1.64

Reported z-score for NC(=O)N1C(=O)C2C(C1=O)C1C=C(CCCO)C2C(C2CC2)N1Cc1cc2c(cc1Br)OCO2 (stereo not given) was -0.885

Reported z-score for `CO[C@H]1O[C@H](CO)[C@@H](OC(=O)Nc2ccc(Br)cc2)[C@@H]2OC(=O)[C@H](Cc3cccc(Br)c3)C/C=C/C[C@@H](Cc3cccc(Br)c3)C(=O)O[C@@H]12` was -0.228

Reported z-score for [N-]=[N+]=Nc1ccccc1C[C@]1(C(=O)NCC(O)CO)N=C(c2ccc(OCCCO)cc2)O[C@H]1c1ccccc1 (stereo not given in full) was -0.984

Reported z-score for `C=CC[C@]1(C(=O)N2CCOCC2)N=C(c2ccc(OCCCO)cc2)O[C@H]1c1ccccc1N=[N+]=[N-]` was -1.8

Reported z-score for `COC(=O)C[C@H]1O[C@@H](CCc2ccccc2)[C@@H](C)[C@@H]1[Si](C)(C)c1ccc(OC)cc1` was -3.97

Reported z-score for C=CC1c2cc(O)c(OC)cc2CCN1Cc1cccc(OC(F)(F)F)c1 (stereo not given) was -2.2

Reported z-score for `COC(=O)[C@@]1(CCC(=O)OC(C)(C)C)N=C(c2ccc(OCCCO)cc2)O[C@H]1c1ccccc1` was -2.83

Reported z-score for `COCCCNC(=O)[C@@]1(Sc2ccc(C)cc2)CC(=O)N(Cc2ccccc2Cl)[C@@H]1c1ccc(CO)cc1` was -0.218

Reported z-score for C=CCC(OC(C)=O)[C@@H]1[C@@H](N(Cc2ccc(-c3cccc(C(F)(F)F)c3)o2)C(=O)Cc2ccc(OC)cc2)c2cc(OCCCO)ccc2N1C(=O)c1ccc2ccccc2c1 (stereo not given in full) was -0.738

Reported z-score for `C=C(CCCC)/C(=C/C[C@H](OC(C)=O)c1ccccc1OCCO)c1cnc2ccccc2c1` was -2.83

Reported z-score for `O=C1[C@H]2C=C(Br)[C@H](C[C@@H]2OCCCCCCO)[C@@]12CO2` was 0.206

Reported z-score for `CCCC=C(CCC)[C@@H](NC(=O)OCC(C)C)c1ccccc1` was -1.71

Reported z-score for `CCCC(=O)N(CCc1c[nH]c2ccccc12)[C@@H]1CC(C(=O)NCCO)=C[C@H](Oc2c(I)cc(CO)cc2OC)[C@H]1O` was 0.0598

Reported z-score for `CC(C)[Si](C#C[Si](C(C)C)(C(C)C)C(C)C)(O[C@H](C)c1cn(Cc2ccccc2)nn1)C(C)C` was -1.67

Reported z-score for `COC(=O)[C@@]1(Cc2ccc(OC)cc2)[C@H]2c3cc(C(=O)N4CCCC4)n(CCCNc4ncc(C(F)(F)F)cc4Cl)c3C[C@H]2CN1C(=O)c1ccccc1` was -4.57

Reported z-score for `COC(=O)c1c2oc(c1C(=O)OC)C(=O)N[C@@H](C(C)C)Cn1cc(nn1)C1(CCCCC1)NC(=O)N[C@H](CO)CC2` was 0.823

Reported z-score for OB1C=CCC(CCc2ccccc2)O1 (stereo not given) was 0.364

Reported z-score for `COc1ccc([Si](C)(C)[C@@H]2[C@@H](CCn3cc([C@H](O)c4ccccc4)nn3)O[C@]3(C(=O)N(Cc4cccc(N5CCC5=O)c4)c4ccccc43)[C@H]2C)cc1` was -0.984

Reported z-score for O=C1OCCC=C[C@H]2OC34C=CCN(CCN5CCOCC5)C(=O)[C@H]3N(CCCCCO)C(=O)[C@@H]4C12 (stereo not given in full) was 0.218

Reported z-score for `COc1ccc([Si](C)(C)[C@H]2[C@H](CCO)O[C@@]3(C(=O)N(Cc4ccccc4)c4ccc(N5CCCCC5=O)cc43)[C@@H]2C)cc1` was -4.53

Reported z-score for `[N-]=[N+]=NCc1ccccc1[C@H]1OC(c2ccc(OCCCO)cc2)=N[C@@]1(Cc1ccccc1)C(=O)N1CCCCC1` was -0.909

Reported z-score for CCN(CC)c1ccc(N2CC=CC34O[C@@H]5C=CCOC(=O)[C@@H]5[C@H]3C(=O)N(CCCCCCO)[C@@H]4C2=O)cc1 (stereo not given in full) was 0.922

Reported z-score for `C=CC[C@]12N=C(c3ccc(OCCCO)cc3)O[C@H]1c1ccccc1N(CCS(=O)(=O)c1ccccc1)C2=O` was -0.916

Reported z-score for `O=C(NC1CC1)[C@@H]1c2ccccc2C(=O)N(C2Cc3ccccc3C2)[C@H]1c1ccc(CO)cc1` was -0.987

Reported z-score for `Cc1ccc(S[C@]2(C(=O)NCC(C)C)CC(=O)N(Cc3cc(C(F)(F)F)cc(C(F)(F)F)c3)[C@@H]2c2ccc(CO)cc2)cc1` was -0.744

Reported z-score for `CCCCCCc1nc(-c2ccc(-c3ccc(Cl)c(Cl)c3)o2)cc2c1[Si](C(C)C)(C(C)C)O[C@H]2c1ccccc1` was 0.568

Reported z-score for `C=CCOC(=O)[C@H]1[C@@H]2C(=O)O[C@@H](c3ccccc3)[C@@H](c3ccccc3)N2[C@@H](c2ccc(OCCOC(=O)[C@H]3C[C@H]4C(=O)N[C@@H](CCCCN(C)C)C(=O)N4[C@H]3c3cccc(OCCO)c3)cc2)[C@]12C(=O)Nc1ccc(I)cc12` was -1.82

Reported z-score for C=CCN(Cc1ccccc1)C(=O)C(c1cccs1)N(C(=O)/C=C\C(=O)O)c1ccc(CCOCCO)cc1 (stereo not given) was 0.526

Reported z-score for `COC(=O)[C@]1(CCC(=O)OC(C)(C)C)N=C(c2ccc(OCCCO)cc2)O[C@@H]1c1ccccc1` was -3.1
